target: T1, cynomolgus monkey CD8 alpha on primary cynomolgus CD8+ T cells (cynomolgus monkey, UniProt P01732 23-235 (human entry)); assay: flow cytometry, cyno CD8+ T cells
T1 construct: also called Cyno CD8alpha; cyno CD8A
T1 sequence (P01732 other isoform, or with tags, fused parts or gaps limits assumed): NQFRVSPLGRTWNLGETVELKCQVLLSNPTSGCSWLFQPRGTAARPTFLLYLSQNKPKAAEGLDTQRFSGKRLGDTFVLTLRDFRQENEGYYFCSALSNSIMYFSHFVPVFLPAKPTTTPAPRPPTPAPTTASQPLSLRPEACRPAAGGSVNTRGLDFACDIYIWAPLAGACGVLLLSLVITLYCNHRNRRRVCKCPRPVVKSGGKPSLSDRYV
METRIC NAME: Cyno T-cell Binding 0.2 uM (MFI)

{"columns": ["BINDER", "DATA VALUE"],
 "data": [
  ["P283FR9P1366_A9 (designed binder, FN3 domain) LPAPKNLVVSRVTEDSARLSWTAPDAAFDSFNIAYGEYPGPGEAIVLTVPGSERSYDLTGLKPGTEYWVPIWGVKGGELSEPLSAIFTT", 580]
]}

P. P283FR9P1366_C3 (designed binder, FN3 domain) LPAPKNLVVSRVTEDSARLSWTAPDAAFDSFKIAYPEWPDGGEAIVLTVPGSERSYDLTGLKPGTEYFVIIYGVKGGILSPPLSAIFTT
Q. P283GR7P1367_B7 (designed binder, FN3 domain) LPAPKNLVVSRVTEDSARLSWTAPDAAFDSFDIAYPEWPTDGEAIVLTVPGSERSYDLTGLKPGTEYFVVIYGVKGGHWSYPLSAIFTT
Which record shows the lower Cyno T-cell Binding 0.2 uM (MFI): the first, P , or the second, Q ? Answer format: the label of the selected item.
P
